Source listed as patent US20100286035A1.

Please go through the items and note down their pIC50.
Tested on: human TGR1 (NMUR2) (human)
Sequence (chain, as listed by the source): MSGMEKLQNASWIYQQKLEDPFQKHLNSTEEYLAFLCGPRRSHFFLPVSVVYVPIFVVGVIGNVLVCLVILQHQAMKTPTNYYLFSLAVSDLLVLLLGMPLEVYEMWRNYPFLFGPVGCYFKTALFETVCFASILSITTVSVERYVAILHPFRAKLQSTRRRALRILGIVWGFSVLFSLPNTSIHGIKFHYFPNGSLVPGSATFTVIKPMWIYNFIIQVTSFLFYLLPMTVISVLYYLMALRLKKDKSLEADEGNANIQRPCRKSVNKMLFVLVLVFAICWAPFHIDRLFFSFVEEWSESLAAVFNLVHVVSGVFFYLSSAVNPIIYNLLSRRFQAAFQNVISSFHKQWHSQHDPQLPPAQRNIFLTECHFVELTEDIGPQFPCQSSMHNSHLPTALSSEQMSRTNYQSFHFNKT
Assay protocol: competition with 125I-NMU8, human TGR1/CHO membrane fraction, filter binding
Description: The protein concentrations in the FM3 and TGR1 membrane fractions were 12 and 22 μg/ml, respectively. Namely, dilution strings of NMU derivatives and PEG conjugates were provided and diluted membrane fraction solutions (200 μl) were added. The mixture was thoroughly blended with a Vortex and the labeled ligand 2 μl (final concentration […]) was added to carry out the reaction at 25° C. for 60 min. […]
Where no end group is shown, it is not given here. AMBz = omega-aminocarboxylic acid linker (structure only drawn); ACP = omega-aminocarboxylic acid linker; AP = not defined here
Scale for pIC50: -log10 of concentration given in mol/L; no unit attached.

// lookup pIC50 for {PEG 30 kDa}-YFLFRPRN-NH2 [PEG30k-NMU-8]
7.18

Also check {PEG 30 kDa-AP}-YFLFRPRN-NH2 (reading uncertain; also: printed as PEG30k(NH-AP)-NMU-8) [PEG30k(NH-AP)-NMU-8]
8.16

Try the binder {PEG 30 kDa-AMBz}-YFLFRPRN-NH2 (also: PEG attached by reductive amination (NH link) to linker) [PEG30k(NH-AMBz)-NMU-8]
8.03

Can you handle YFLFRPRN-NH2 [NMU-8] next?
10.05

Param item: {PEG 30 kDa-ACP}-YFLFRPRN-NH2 (also: PEG-aldehyde bound by reductive amination (NH linkage)) [PEG30k(NH-ACP)-NMU-8]
8.10
